- TARGET SYSTEM: thrombin (Homo sapiens, UniProt P00734)
- METHOD: in-vitro inhibition of the amidase activity of thrombin (fluorogenic substrate Tos-Gly-Pro-Arg-AMC)
- Format: biochemical
- Set-up: 10 μl of human thrombin solution
- MEASUREMENT CONDITIONS: peptide concentration of 1 μM
Square brackets hold non-standard residues; d marks the D form. Cha = N[C@@H](CC1CCCCC1)C(=O)O
MEASURED PROPERTY: inhibition of the amidase activity of the thrombin

**Q:** Consider the substance N-acetyl-L-Trp-L-Cha-D-Pro-D-Tyr-L-Arg amide (Ac-W[Cha][dP][dY]R-NH2; SMILES CC(=O)N[C@@H](Cc1c[nH]c2ccccc12)C(=O)N[C@@H](CC1CCCCC1)C(=O)N1CCC[C@@H]1C(=O)N[C@H](Cc1ccc(O)cc1)C(=O)N[C@@H](CCCNC(=N)N)C(N)=O) [Example 9] and give its measured inhibition of the amidase activity of the thrombin.
**A:** 63%

**Q:** Consider the substance N-acetyl-L-Ile-L-Arg-L-Cha-D-Pro-D-Tyr-L-Arg amide (Ac-IR[Cha][dP][dY]R-NH2; SMILES CC[C@H](C)[C@H](NC(C)=O)C(=O)N[C@@H](CCCNC(=N)N)C(=O)N[C@@H](CC1CCCCC1)C(=O)N1CCC[C@@H]1C(=O)N[C@H](Cc1ccc(O)cc1)C(=O)N[C@@H](CCCNC(=N)N)C(N)=O) [Example 5] and give its measured inhibition of the amidase activity of the thrombin.
**A:** 61%

**Q:** Consider the substance N-acetyl-D-Gln-D-His-L-Cha-D-Pro-D-Tyr-L-Arg amide (Ac-[dQ][dH][Cha][dP][dY]R-NH2; SMILES CC(=O)N[C@H](CCC(N)=O)C(=O)N[C@H](Cc1c[nH]cn1)C(=O)N[C@@H](CC1CCCCC1)C(=O)N1CCC[C@@H]1C(=O)N[C@H](Cc1ccc(O)cc1)C(=O)N[C@@H](CCCNC(=N)N)C(N)=O) [Example 1] and give its measured inhibition of the amidase activity of the thrombin.
**A:** 59%

**Q:** Consider the substance N-acetyl-L-Ala-L-Cha-D-Pro-D-Tyr-L-Arg amide (Ac-A[Cha][dP][dY]R-NH2; SMILES CC(=O)N[C@@H](C)C(=O)N[C@@H](CC1CCCCC1)C(=O)N1CCC[C@@H]1C(=O)N[C@H](Cc1ccc(O)cc1)C(=O)N[C@@H](CCCNC(=N)N)C(N)=O) [Example 4] and give its measured inhibition of the amidase activity of the thrombin.
**A:** 44%

**Q:** Consider the substance N-acetyl-L-Ser-L-Ser-L-Cha-D-Pro-D-Tyr-L-Arg amide (Ac-SS[Cha][dP][dY]R-NH2; SMILES CC(=O)N[C@@H](CO)C(=O)N[C@@H](CO)C(=O)N[C@@H](CC1CCCCC1)C(=O)N1CCC[C@@H]1C(=O)N[C@H](Cc1ccc(O)cc1)C(=O)N[C@@H](CCCNC(=N)N)C(N)=O) [Example 7] and give its measured inhibition of the amidase activity of the thrombin.
**A:** 40%

**Q:** Consider the substance N-acetyl-D-Tyr-L-Cha-D-Pro-D-Tyr-L-Arg amide (Ac-[dY][Cha][dP][dY]R-NH2; SMILES CC(=O)N[C@H](Cc1ccc(O)cc1)C(=O)N[C@@H](CC1CCCCC1)C(=O)N1CCC[C@@H]1C(=O)N[C@H](Cc1ccc(O)cc1)C(=O)N[C@@H](CCCNC(=N)N)C(N)=O) [Example 13] and give its measured inhibition of the amidase activity of the thrombin.
**A:** 47%

**Q:** Consider the substance N-acetyl-D-Val-L-Cha-D-Pro-D-Tyr-L-Arg amide (Ac-[dV][Cha][dP][dY]R-NH2; SMILES CC(=O)N[C@@H](C(=O)N[C@@H](CC1CCCCC1)C(=O)N1CCC[C@@H]1C(=O)N[C@H](Cc1ccc(O)cc1)C(=O)N[C@@H](CCCNC(=N)N)C(N)=O)C(C)C) [Example 8] and give its measured inhibition of the amidase activity of the thrombin.
**A:** 45%

Origin of the recorded values: patent US7423021B2
